- method: Cytotoxicity against HEK293 cells assessed as reduction in cell growth incubated for 3 days by resazurin dye based analysis
- Assay type: toxicity
- condition label: human, time 3 day
property: CC50 at 72 h

Task: GET /values?readout=CC50 at 72 h&item= "COc1cc(/C=C2/Oc3cc(O)ccc3C2=O)cc(OC)c1"
Result: > 200 µM

###

- Tested on: Leishmania donovani
- method: Antileishmanial activity against Leishmania donovani MHOM/SD/62/1S amastigotes assessed as reduction in cell growth
- Format: functional, organism-based
pIC50 values for the compounds below.
Scale for pIC50: -log10 of concentration given in mol/L; no unit attached.

smiles code: Cc1ccc2c(NCCCN(C)C(=O)c3cccc(/C=C/C(=O)c4ccc(C)o4)c3)ccnc2c1
system under test: Leishmania donovani
pIC50: 5.97

Task: GET /values?readout=pIC50&item= "Cc1ccc2c(NCCCCCNC(=O)c3cccc(/C=C/C(=O)c4ccc(C)o4)c3)ccnc2c1"
Result: 6.34
